Hey, just so you know, these numbers are from ChEMBL document CHEMBL1909046.

Examples of compounds with documented IC50 follow.
Biological target: UniProtKB P08172
Sequence (P08172 whole entry): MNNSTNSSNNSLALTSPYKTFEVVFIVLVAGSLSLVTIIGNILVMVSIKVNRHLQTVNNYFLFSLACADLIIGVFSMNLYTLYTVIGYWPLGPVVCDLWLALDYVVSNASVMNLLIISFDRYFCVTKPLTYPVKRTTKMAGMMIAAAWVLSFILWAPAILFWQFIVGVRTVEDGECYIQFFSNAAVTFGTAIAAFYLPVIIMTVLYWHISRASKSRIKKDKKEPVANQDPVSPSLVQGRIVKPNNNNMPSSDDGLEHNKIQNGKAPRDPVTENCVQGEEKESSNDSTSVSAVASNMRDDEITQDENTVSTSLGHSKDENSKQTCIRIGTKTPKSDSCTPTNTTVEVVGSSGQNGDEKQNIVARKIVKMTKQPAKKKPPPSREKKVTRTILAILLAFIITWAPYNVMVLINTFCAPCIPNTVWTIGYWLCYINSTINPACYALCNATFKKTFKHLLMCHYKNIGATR
Assay type: cell membranes, CHO-K1, Membrane
Conditions: read-out: IC50
Your answer should be a plain number; it is taken to be in nM.

Clc1ccc(COC(Cn2ccnc2)c2ccc(Cl)cc2Cl)c(Cl)c1 (stereo not given) ... 4340
CCN(CC)CCCC(C)Nc1c2ccc(Cl)cc2nc2ccc(OC)cc12 (stereo not given) ... 964
CN1CCN(C(c2ccccc2)c2ccccc2)CC1 ... 1160
CN1CCCC(CN2c3ccccc3Sc3ccccc32)C1 (stereo not given) ... 565

Please find the next compound below.
Which IC50 is listed for CN1CCC(=C2c3ccccc3CC(=O)c3sccc32)CC1 ? 838
